Experiment: Inhibition of Plek2 in Ter119-positive mouse fetal liver erythroid progenitor cells cultured in erythropoietin containing medium assessed as decrease in terminal enucleation of erythroblasts measured by HTS assay
Type: tissue-based
pIC50: −log10 of the molar value.

# Molecule, pIC50
data = [
    ("O=C(c1c[nH]c2ccccc12)C(O)C(c1ccccc1)N1CCN(CCO)CC1 (stereo unspecified)", 4.40),
]

====

Test: Inhibition of Plek2 in Ter119-negative mouse fetal liver erythroid progenitor cells overexpressing Plek2 cultured in erythropoietin containing medium assessed as decrease in cell proliferation measured by HTS assay
Assay type: tissue-based
pIC50: −log10 of the molar value.

# Molecule, pIC50
rows = [
    ("CN1CCN(C(c2ccc(Cl)cc2)C(O)C(=O)c2c[nH]c3ccccc23)CC1 (stereo unspecified)", "> 5.00"),
]
